Exercise: state measured PC12 cell viability (% of control) for each of the compounds provided.
- System: PC12 cells
- ASSAY PROTOCOL: Neuroprotection against H2O2-induced cell death in PC12 cells (MTT)
- Type: cell-based
- RECORDED CONDITIONS: 1 μM compound, H2O2 (150 μM)-induced injury, mean ± SEM

q: Report PC12 cell viability (% of control) for O=c1oc2ccccc2cc1-c1ccc(OCCC[n+]2ccccc2)cc1.[Br-] [Compound 3a] please.
a: 42.2 ± 1.3 % of control

q: Report PC12 cell viability (% of control) for O=c1c(O)c(-c2ccc(O)c(O)c2)oc2cc(O)cc(O)c12 [Quercetin, reference compound] please.
a: 44.2 ± 0.7 % of control

q: Report PC12 cell viability (% of control) for O=c1oc2ccc([N+](=O)[O-])cc2cc1-c1ccc(OCCC[n+]2ccccc2)cc1.[Br-] [Compound 3f] please.
a: 42.8 ± 1.4 % of control

q: Report PC12 cell viability (% of control) for O=c1oc2ccc([N+](=O)[O-])cc2cc1-c1ccc(OCCCC[n+]2ccccc2)cc1.[Br-] [Compound 3l] please.
a: 27.3 ± 1.2 % of control

q: Report PC12 cell viability (% of control) for COc1ccc2oc(=O)c(-c3ccc(OCCC[n+]4ccccc4)cc3)cc2c1.[Br-] [Compound 3b] please.
a: 37.6 ± 1.1 % of control

q: Report PC12 cell viability (% of control) for CN(C)c1cc[n+](CCCOc2ccc(-c3cc4cc([N+](=O)[O-])ccc4oc3=O)cc2)cc1.[Br-] [Compound 3t] please.
a: 45.3 ± 0.7 % of control

q: Report PC12 cell viability (% of control) for O=c1oc2ccccc2cc1-c1ccc(OCCCC[n+]2ccccc2)cc1.[Br-] [Compound 3g] please.
a: 33.6 ± 1.2 % of control
